Test system: MMV665949-selected Culture 1 (from Dd2-Polδ; not cloned)
assay info: P. falciparum proliferation assay (72 h, fluorescent DNA-intercalating dye)
Assay type: cell-based, Plasmodium falciparum
condition notes: Plasmodium falciparum, DD2; MMV665949-selected Culture 1; mean ± SEM, n = 3; read-out: IC50 value
measured quantity: pIC50
Scale: pIC50 equals -log10([C]), with [C] in mol/L.

[ask] Reported pIC50 for "C[C@H]1Cc2c([nH]c3cc(Cl)c(F)cc23)[C@@]2(N1)C(=O)Nc1ccc(Cl)cc12" : what is it?
[reply] 8.85

====

System: NF54^G358S-2 parasites
assay info: P. falciparum proliferation assay (72 h, flow cytometry, SYBR Green I/MitoTracker)
Format: cell-based, Plasmodium falciparum
condition notes: Plasmodium falciparum, NF54, NF54G358S-2 parasites; mean of the experiments; read-out: IC50 values, MEAN
Quick reference for IC50 among some compounds
Provide only the numeric value, understood in nM.

• COc1nc(C(C)C)ccc1-c1cnc2sc(N3CCC(O)(CN)CC3)nn12 [INE963] = 1.15
• Clc1ccc2c(N3CCN(CCCN4CCN(c5ccnc6cc(Cl)ccc56)CC4)CC3)ccnc2c1 [Piperaquine] = 18
• CCCCN(CCCC)CC(O)c1cc(Cl)cc2c1-c1ccc(Cl)cc1/C2=C/c1ccc(Cl)cc1 (stereo not shown) [Lumefantrine] = 41.1

Could you now consider this next compound?
[ask] Look up IC50: COc1ccc2nc3cc(Cl)ccc3c(Nc3cc(CN4CCCC4)c(O)c(CN4CCCC4)c3)c2n1 [Pyronaridine]
[reply] 1.7

====

Tested on: Dd2-Polδ-PfATP4^G358S parasites
assay info: P. falciparum proliferation assay (72 h, fluorescent DNA-intercalating dye)
Format: cell-based, Plasmodium falciparum
condition notes: Plasmodium falciparum, DD2, read-out: Dihydroartemisinin IC50 values, Dd2-Polδ-PfATP4G358S; MEAN
measured quantity: pIC50
Remember, pIC50 is on a log scale: it is -log10 of the molar concentration.

[ask] Which pIC50 value is on record for C[C@H]1[C@@H](O)O[C@@H]2O[C@@]3(C)CC[C@H]4[C@H](C)CC[C@@H]1[C@@]24OO3 [Dihydroartemisinin] ?
[reply] 8.59

====

Test system: isolated Dd2-Polδ-PfATP4^G358S P. falciparum trophozoites
assay info: [Na+]cyt measurement (SBFI), Na+ dysregulation
Type: cell-based, Plasmodium falciparum
condition notes: Plasmodium falciparum, DD2, Dd2-Polδ-PfATP4G358S; single experiments; source data of Table 1 (nM there); read-out: IC50 for Na+ dysregulation
measured quantity: IC50 (nM)
Respond numerically; units are nM and should not be typed.

[ask] Record lookup: for isolated Dd2-Polδ-PfATP4^G358S P. falciparum trophozoites, what IC50 belongs to "C[C@H]1Cc2c([nH]c3cc(Cl)c(F)cc23)[C@@]2(N1)C(=O)Nc1ccc(Cl)cc12" ?
[reply] 3540

====

Test system: Dd2 parasites
assay info: P. falciparum proliferation assay (72 h, fluorescent DNA-intercalating dye)
Type: cell-based, Plasmodium falciparum
condition notes: Plasmodium falciparum, DD2, read-out: Dihydroartemisinin IC50 values, Dd2; MEAN
measured quantity: pIC50
Reminder that pIC50 means the negative base-10 logarithm of the concentration expressed in mol/L.

[ask] Name the reported pIC50 value associated with the molecule C[C@H]1[C@@H](O)O[C@@H]2O[C@@]3(C)CC[C@H]4[C@H](C)CC[C@@H]1[C@@]24OO3 [Dihydroartemisinin]
[reply] 8.66
